Data credit: patent US20240132624A1

# Measured Target: T1, human FcRn/b2M (human, UniProt P61769 21-119, biotinylated)
# T1 construct: bought recombinant biotinylated protein (ACRO FCM-H82W4 or Immunitrack ITF01); also called hFcRn; hFcRn/hb2M
# Assay Summary: SPR pH 6.0;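 further: surface plasmon resonance kinetics at 25 °C, diluted periplasmic extracts injected over immobilized ligand surfaces, 120 s association then 600–3600 s dissociation, running buffer containing 150 mM NaCl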
Reported Metric: koff (s⁻¹)

binder="T0263018B11 W100cA (VHH, name in Kabat numbering, FLAG3-His6 tagged) VHH: EVQLVESGGGVVQPGGSLRLSCAASGFTFSSYAMYWVRQAPGKGLEWVSAISSGGGSTDYADSVKGRFTISRDNSKNTLYLQMNSLRPEDTALYYCAADTLYTSLTAYSYWGQGTLVTVSS" endpoint_value=0.01

[I] T0263018B11 W100cL (VHH, name in Kabat numbering, FLAG3-His6 tagged) VHH: EVQLVESGGGVVQPGGSLRLSCAASGFTFSSYAMYWVRQAPGKGLEWVSAISSGGGSTDYADSVKGRFTISRDNSKNTLYLQMNSLRPEDTALYYCAADTLYTSLTLYSYWGQGTLVTVSS
[II] T0263018B11 Y32L (VHH, name in Kabat numbering, FLAG3-His6 tagged) VHH: EVQLVESGGGVVQPGGSLRLSCAASGFTFSSLAMYWVRQAPGKGLEWVSAISSGGGSTDYADSVKGRFTISRDNSKNTLYLQMNSLRPEDTALYYCAADTLYTSLTWYSYWGQGTLVTVSS
[III] T0263018B11 S31P (VHH, name in Kabat numbering, FLAG3-His6 tagged) VHH: EVQLVESGGGVVQPGGSLRLSCAASGFTFSPYAMYWVRQAPGKGLEWVSAISSGGGSTDYADSVKGRFTISRDNSKNTLYLQMNSLRPEDTALYYCAADTLYTSLTWYSYWGQGTLVTVSS
Give the ascending ranking of the items by reported koff. State the ranking by listing the labels in the requested order.
III, I, II
(III: 0.00088 s⁻¹, I: 0.0064 s⁻¹, II: 0.013 s⁻¹)
